Test system: P388 leukemia ip, CD2F1 mice, survival T/C
protocol_description: NCI In Vivo Anticancer Drug Screen. Data for tumor model P388 Leukemia (intraperitoneal) in CD2F1 (CDF1) mice
applied_conditions: endpoint: median survival time; dose: 25.0 mg/kg/injection; schedule: Q01DX005 (ip); vehicle: saline with Tween-80; higher = longer survival
Inconclusive results and toxic doses are left out.
measured_parameter: T/C

INSERT INTO assay_data (molecule, recorded_measurement) VALUES
  ('C#CC(C)(CC(C)C)OCCN(CC)CC (stereo not drawn)', '104 % of control'),
  ('CCCCNP1(NCCCC)=NP(NCCCC)(NCCCC)=NP(NCCCC)(NCCCC)=NP(NCCCC)(NCCCC)=N1', '116 % of control'),
  ('COc1cc(/C=N/NC(=O)COCC(=O)N/N=C/c2ccc(O)cc2OC)ccc1O', '105 % of control'),
  ('S=c1sc2ccccc2n1CN1CCOCC1', '107 % of control'),
  ('CCCCOc1ccc(-c2cnc(-c3ccc(-c4ncc(-c5ccc(OCCCC)cc5)o4)cc3)o2)cc1', '89 % of control'),
  ('Fc1ccc2cc3cccc[n+]3cc2c1', '99 % of control'),
  ('O=C(CNC(=O)c1ccc(Cl)cc1)c1ccc(Br)cc1', '92 % of control'),
  ('CN(C)c1ccc(NC2=C(Cl)C(=O)C(Nc3ccc(N(C)C)cc3)=C(Cl)C2=O)cc1', '101 % of control');
